# PROTOCOL_DETAILS: Retention of peptides P1-1 to P1-5 on a polypropylene sheet after successive washes
# Assay type: physicochemical
# TEST_PARAMETERS: after third wash scan; unwashed control array
Ends that are not written are not given here.
VALUE_TYPE: Average fluorescence, control array

INSERT INTO assay_data (substance, value_type, result_value) VALUES
  ('TAMRA-F-G-F-G-F-G-F-S-F-A-F-D-F-G-F ({TAMRA}-FGFGFGFSFAFDFGF) [Peptide P1-3]', 'Average fluorescence, control array', '184,219,147'),
  ('TAMRA-F-G-F-S-F-A-F-D-F-G-F ({TAMRA}-FGFSFAFDFGF) [Peptide P1-1]', 'Average fluorescence, control array', '218,342,010');

What does the data say about its Average fluorescence, control array? Entry: TAMRA-F-G-F-G-F-G-F-G-F-G-F-S-F-A-F-D-F-G-F ({TAMRA}-FGFGFGFGFGFSFAFDFGF) [Peptide P1-5]
183,492,293

Look up Average fluorescence, control array: TAMRA-F-G-F-G-F-S-F-A-F-D-F-G-F ({TAMRA}-FGFGFSFAFDFGF) [Peptide P1-2]
185,727,868

Consider the substance shown here: TAMRA-F-G-F-G-F-G-F-G-F-S-F-A-F-D-F-G-F ({TAMRA}-FGFGFGFGFSFAFDFGF) [Peptide P1-4] What is its recorded Average fluorescence, control array?
176,102,487

----------
# PROTOCOL_DETAILS: Retention of peptides in flat-bottomed polypropylene wells
# Assay type: physicochemical
# TEST_PARAMETERS: flat-bottom wells; 500V scan; washed 15 minutes in 1 M NaCl in 10 mM tris-HCl (pH 8.0)
Ends that are not written are not given here.
Listed below: Retained fluorescence values for each entry.

Before answering, review these 10 worked examples.
INSERT INTO results (substance, result_value) VALUES
  ('N-TAMRA-Asp-Phe- Ala-Phe-Ser-Phe- Lys-C ({TAMRA}-DFAFSFK) [Peptide 2DOS-6]', '5,256,539'),
  ('N-TAMPA-Asp-Asp- Ala-Asp-Ser-Asp- Lys-C ({TAMRA}-DDADSDK) [Peptide 2DOS-8]', '637,350'),
  ('N-TAMRA-Phe-Asp- Phe-Asp-Phe-Asp- Phe-Asp-Phe-C ({TAMRA}-FDFDFDFDF) [Peptide 2DOS-10]', '5,353,630'),
  ('N-TAMRA-Ser-Asp- Ser-Asp-Ser-Asp- Ser-Asp-Ser-C ({TAMRA}-SDSDSDSDS) [Peptide 2DOS-11]', '476,318'),
  ('N-TAMRA-Ser-Asp- Ser-Ala-Ser-Ser- Ser-Lys-Ser-C ({TAMRA}-SDSASSSKS) [Peptide 2DOS-3]', '2,836,015'),
  ('N-TAMRA-Asp-Ser- Ala-Ser-Ser-Ser- Lys-C ({TAMRA}-DSASSSK) [Peptide 2DOS-7]', '1,303,195'),
  ('N-TAMRA-Phe-Asp- Phe-Ala-Phe-Ser- Phe-Lys-Phe-C ({TAMRA}-FDFAFSFKF) [Peptide 2DOS-2]', '14,665,720'),
  ('N-TAMPA-Asp-Asp- Asp-Asp-Asp-Asp- Asp-C ({TAMRA}-DDDDDDD) [Peptide 2DOS-16]', '229,090'),
  ('N-TAMRA-Asp-Phe- Asp-Phe-Asp-Phe- Asp-C ({TAMRA}-DFDFDFD) [Peptide 2DOS-14]', '670,341'),
  ('N-TAMPA-Asp-Asp- Asp-Asp-Asp-Asp- Asp-Asp-Asp-C ({TAMRA}-DDDDDDDDD) [Peptide 2DOS-12]', '106,741');

Recorded Retained fluorescence for N-TAMPA-Asp-Asp- Asp-Ala-Asp-Ser- Asp-Lys-Asp-C ({TAMRA}-DDDADSDKD) [Peptide 2DOS-4] , please?
198,507

Recorded Retained fluorescence for N-TAMRA-Asp-Ser- Asp-Ser-Asp-Ser- Asp-C ({TAMRA}-DSDSDSD) [Peptide 2DOS-15] , please?
104,523

----------
Average fluorescence, control array: recorded values
# PROTOCOL_DETAILS: Retention of peptides P1-1 to P1-5 on a polypropylene sheet after successive washes
# Assay type: physicochemical
# TEST_PARAMETERS: after second wash scan; unwashed control array
Ends that are not written are not given here.

INSERT INTO results (substance, result_value) VALUES
  ('TAMRA-F-G-F-G-F-G-F-G-F-S-F-A-F-D-F-G-F ({TAMRA}-FGFGFGFGFSFAFDFGF) [Peptide P1-4]', '179,942,418'),
  ('TAMRA-F-G-F-S-F-A-F-D-F-G-F ({TAMRA}-FGFSFAFDFGF) [Peptide P1-1]', '225,863,933'),
  ('TAMRA-F-G-F-G-F-G-F-G-F-G-F-S-F-A-F-D-F-G-F ({TAMRA}-FGFGFGFGFGFSFAFDFGF) [Peptide P1-5]', '190,847,825'),
  ('TAMRA-F-G-F-G-F-S-F-A-F-D-F-G-F ({TAMRA}-FGFGFSFAFDFGF) [Peptide P1-2]', '196,080,891');

# Average fluorescence, control array lookup, item TAMRA-F-G-F-G-F-G-F-S-F-A-F-D-F-G-F ({TAMRA}-FGFGFGFSFAFDFGF) [Peptide P1-3]
187,310,655

----------
# PROTOCOL_DETAILS: Retention of peptides in flat-bottomed polypropylene wells
# Assay type: physicochemical
# TEST_PARAMETERS: flat-bottom wells; 500V scan; unwashed
# Experimental: The retention of peptides 2DOS-1 to 2DOS-16 (see above) on polypropylene wells of different geometries was investigated: 10 mM tris-HCl (pH 8.0) in 50% (v/v) aqueous acetonitrile was used as the solvent for the peptides and for TAMRA. […] The fluorescence images were analysed using ImageQuant TL v2003.03 (Amersham Biosciences).
Ends that are not written are not given here.
VALUE_TYPE: Untreated fluorescence

I'd like to know its Untreated fluorescence. The substance in question is N-TAMRA-Ser-Asp- Ser-Ala-Ser-Ser- Ser-Lys-Ser-C ({TAMRA}-SDSASSSKS) [Peptide 2DOS-3]
14,152,875

----------
# PROTOCOL_DETAILS: Retention of peptides on Costar polypropylene V-bottom wells
# Type: physicochemical
# TEST_PARAMETERS: 400V scan, washed 15 minutes in 1 M NaCl in 10 mM tris-HCl (pH 8.0)
Ends that are not written are not given here.
VALUE_TYPE: Retained fluorescence

Before answering, review these 4 worked examples.
INSERT INTO measurements (substance, result_value) VALUES
  ('N-TAMRA-Asp-Ser- Ala-Ser-Ser-Ser- Lys-C ({TAMRA}-DSASSSK) [Peptide 2DOS-7]', '326,328'),
  ('N-TAMRA-Phe-Asp- Phe-Ala-Phe-Ser- Phe-Lys-Phe-C ({TAMRA}-FDFAFSFKF) [Peptide 2DOS-2]', '5,349,601'),
  ('N-TAMRA-Asp-Phe- Asp-Phe-Asp-Phe- Asp-C ({TAMRA}-DFDFDFD) [Peptide 2DOS-14]', '595,959'),
  ('N-TAMRA-Ser-Asp- Ser-Ala-Ser-Ser- Ser-Lys-Ser-C ({TAMRA}-SDSASSSKS) [Peptide 2DOS-3]', '673,940');

Given the entry N-TAMPA-Asp-Asp- Asp-Asp-Asp-Asp- Asp-Asp-Asp-C ({TAMRA}-DDDDDDDDD) [Peptide 2DOS-12] , report its measured Retained fluorescence.
18,180

Bench note: what Retained fluorescence did N-TAMRA-Phe-Asp- Phe-Asp-Phe-Asp- Phe-Asp-Phe-C ({TAMRA}-FDFDFDFDF) [Peptide 2DOS-10] show?
1,439,375

Bench note: what Retained fluorescence did N-TAMRA-Asp-Ser- Asp-Ser-Asp-Ser- Asp-C ({TAMRA}-DSDSDSD) [Peptide 2DOS-15] show?
50,584

Returns the measured Retained fluorescence for the input substance. Input: N-TAMRA-Ser-Asp- Ser-Asp-Ser-Asp- Ser-Asp-Ser-C ({TAMRA}-SDSDSDSDS) [Peptide 2DOS-11]
102,040

What measured Retained fluorescence goes with N-TAMRA-Asp-Phe- Ala-Phe-Ser-Phe- Lys-C ({TAMRA}-DFAFSFK) [Peptide 2DOS-6] ?
1,256,204

Query (substance): N-TAMPA-Asp-Asp- Asp-Ala-Asp-Ser- Asp-Lys-Asp-C ({TAMRA}-DDDADSDKD) [Peptide 2DOS-4] ; field requested: Retained fluorescence
74,143

// returns reported Retained fluorescence for input N-TAMPA-Asp-Asp- Ala-Asp-Ser-Asp- Lys-C ({TAMRA}-DDADSDK) [Peptide 2DOS-8]
93,455

Endpoint output: Retained fluorescence of N-TAMPA-Asp-Asp- Asp-Asp-Asp-Asp- Asp-C ({TAMRA}-DDDDDDD) [Peptide 2DOS-16] . Value?
16,194
